All values here come from PubChem BioAssay (NCI).

System: M14 melanoma
Choose one outcome from this list and give only that: active, inactive

1. CCOc1cc(-c2ccc[nH]2)[nH]c1/C=C1\N=C(C)C(C(=O)OC)=C1C : active
2. O=C(Cc1csc2nc(-c3ccc(Br)cc3)cn12)N/N=C/c1ccc(O)cc1 : inactive

Req: Name the outcome recorded for "CN1CCN(c2nc(-c3ccncc3)nc3sc4c(c23)CCCCCC4)CC1" in the assay.
Resp: inactive

---

System: HT29 colon
test: NCI tumour cell line growth inhibition, 48 h
TGI overview

Example compounds with recorded TGI:
1. CC(=O)CC(=O)CCC(=O)O : > 100 µM
2. CCN(CC)CCN(C(=O)C(C)(C)C)c1ccccc1N : > 100 µM

Req: Tell us which TGI value is on record for "Cc1nc(-n2nc(-c3ccccc3)cc2-c2ccccc2)sc1C(/C=C/c1ccc([N+](=O)[O-])cc1)=N/NC(=O)c1ccncc1"
Resp: > 100 µM

---

Test system: M14 melanoma
test: NCI tumour cell line growth inhibition, 48 h
TGI overview

1. CCOP(=O)(OCC)C(C)(CC)NC(=O)C(C(F)(F)F)C(F)(F)F (stereo not drawn) : > 100 µM

Req: Tell us which TGI value is on record for "C=[CH][Sn]([CH]=C)([O]c1cccc2cccnc12)[O]c1cccc2cccnc12"
Resp: 5.92 µM

Req: Tell us which TGI value is on record for CC1(C2CCC3(C)OC3C2)CO1 (stereo not drawn)
Resp: > 100 µM

---

TGI overview
Tested on: M14 melanoma
test: NCI tumour cell line growth inhibition, 48 h

Example molecules with recorded TGI:
1. CCOc1cc(-c2ccc[nH]2)[nH]c1/C=C1\N=C(C)C(C(=O)OC)=C1C : 1.18 µM
2. COc1ccc2nc3n(c2c1)CCc1cc(OC)c(OC)cc1-3 : > 100 µM

Req: Tell us which TGI value is on record for "CN1CCN(c2nc(-c3ccncc3)nc3sc4c(c23)CCCCCC4)CC1"
Resp: 18 µM

Req: Tell us which TGI value is on record for "CN(C)C(=S)Oc1ccc2ccc(=O)oc2c1"
Resp: > 100 µM

Req: Tell us which TGI value is on record for "O=C1c2ccccc2C(=O)c2nc3ccc(Cl)cc3cc21"
Resp: > 100 µM

Req: Tell us which TGI value is on record for "O=C(/C=C/c1cccs1)c1ccccc1Cl"
Resp: > 55.9 µM

Req: Tell us which TGI value is on record for "CCCCCCCCCCCCOP(N)(=O)OCCCCCCCCCCCC"
Resp: > 100 µM

Req: Tell us which TGI value is on record for CO[C@@]12[C@@H]3NC3CN1C1=C(C(=O)C(N)=C(C)C1=O)[C@@H]2COC(N)=O (stereo partly drawn)
Resp: 1.82 µM

Req: Tell us which TGI value is on record for "O=C(Cc1ccccc1)NN1C(=O)/C(=C\c2ccc(O)cc2)SC1=Nc1ccccc1"
Resp: > 100 µM

Req: Tell us which TGI value is on record for "Nc1ccc2c(c1)c(N)nn2C(=O)Nc1ccc(Cc2ccccc2)cc1"
Resp: 17.8 µM

Req: Tell us which TGI value is on record for "COc1c(C)c(C/C=C(\C)CC/C=C(\C)CCC=C(C)C)c(OC)c(OC)c1OC"
Resp: > 100 µM

Req: Tell us which TGI value is on record for CC(=O)C1C(=O)N(C(C)C)C[C@@H]2CCC(=O)C[C@H]12 (stereo partly drawn)
Resp: > 100 µM
